- TARGET_OF_ASSAY: T1, SARS-CoV-2 spike protein (SARS-CoV-2, UniProt P0DTC2 14-1208)
- T1 construct: also called SARS-CoV-2 S protein; antigen of interest
- METHOD_DESCRIPTION: HT-SPR, Carterra LSA; mAb coupled to chip, antigen injected; 1:1 fit
READOUT_NAME: pKd
Lab note: report pKd as minus log10 of the concentration in molar units, number only.

BINDER	READOUT_NAME	NUMBER
antibody 554 (antibody, V domains shown) VH: QVQLVESGGGVVQPGRSLRLSCAASGFTFSSYAMHWVRQAPGKGLEWVAVISYDGSNKYYADSVKGRFTISRDNSKNTLYLQMNSLRAEDTAVYYCARPQGGNYYYYGMDVWGQGTTVTVSS VL: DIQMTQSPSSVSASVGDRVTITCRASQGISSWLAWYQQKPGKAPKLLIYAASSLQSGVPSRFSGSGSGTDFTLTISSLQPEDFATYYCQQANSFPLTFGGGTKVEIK	pKd	9.89

Please turn your attention to the following entry.
For antibody 506 (antibody, V domains shown) VH: QITLKESGPTLVKPTQTLTLTCTFSGFSLSTSGVGVGWIRQPPGKALEWLALIYWDDDKRYSPSLKSRLTITKDTSKNQVVLTMTNMDPVDTATYYCAHHSLSSIFDYWGQGTLVTVSS VL: QSALTQPASVSGSPGQSITISCTGTSSDVGDYNYVSWYQQHPGKAPKLMIYEVSNRPSGVSNRFSGSKSGNTASLTISGLQAEDEADYYCSSYTSSSTVFGGGTKLTVLG , what is its reported pKd? 9.28

All values here come from patent US20210292393A1.
